- STUDY TARGET: 2-5A-dependent ribonuclease (Homo sapiens)
- Sequence (Q05823 whole entry, the tested form may be a part): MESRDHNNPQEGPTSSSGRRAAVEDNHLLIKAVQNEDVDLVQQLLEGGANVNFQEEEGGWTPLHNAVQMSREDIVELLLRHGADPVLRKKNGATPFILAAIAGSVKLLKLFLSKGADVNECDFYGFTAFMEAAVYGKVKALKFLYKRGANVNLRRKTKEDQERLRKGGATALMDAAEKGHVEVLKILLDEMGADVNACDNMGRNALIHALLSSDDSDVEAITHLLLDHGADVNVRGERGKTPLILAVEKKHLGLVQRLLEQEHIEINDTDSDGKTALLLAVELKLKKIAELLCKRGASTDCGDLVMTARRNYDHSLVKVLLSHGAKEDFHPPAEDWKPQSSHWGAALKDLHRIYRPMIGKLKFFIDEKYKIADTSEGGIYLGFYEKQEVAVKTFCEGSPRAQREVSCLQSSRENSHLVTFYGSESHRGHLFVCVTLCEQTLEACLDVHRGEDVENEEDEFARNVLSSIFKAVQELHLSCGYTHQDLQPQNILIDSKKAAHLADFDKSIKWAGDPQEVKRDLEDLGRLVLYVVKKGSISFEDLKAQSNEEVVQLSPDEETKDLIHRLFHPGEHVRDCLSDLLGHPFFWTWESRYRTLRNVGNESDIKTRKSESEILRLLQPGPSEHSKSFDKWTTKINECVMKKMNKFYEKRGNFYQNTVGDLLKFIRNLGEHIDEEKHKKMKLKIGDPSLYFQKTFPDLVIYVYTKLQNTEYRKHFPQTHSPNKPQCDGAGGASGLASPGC
- TEST DETAILS: Inhibition of full length H-RNAase L expressed in Escherichia coli BL21 (DE3) assessed as inhibition rate incubated for 15 min in presence of 1 nM 2-5A for 15 mins by Coomassie staining based SDS-PAGE analysis
METRIC NAME: IC50 (nM)
Give a bare numeral; the unit nM is implied.

Need IC50 of O=c1c(O[C@@H]2O[C@H](CO)[C@H](O)[C@H](O)[C@H]2O)c(-c2ccc(O)c(O)c2)oc2cc(O)cc(O)c12 [HYPEROSIDE] , thanks.
1360

----------
- STUDY TARGET: 2-5A-dependent ribonuclease (Homo sapiens)
- TEST DETAILS: Inhibition of recombinant full length H-RNAase L (1 to 741 residues) expressed in Escherichia coli BL21 (DE3) assessed as inhibition rate in presence of 2-5A and ATP/MgCl2 by STD-NMR spectroscopy
METRIC NAME: pIC50
In textbook form, pIC50 equals minus log to base ten of the concentration in mol/L.

Need pIC50 of O=c1c(O)c(-c2cc(O)c(O)c(O)c2)oc2cc(O)cc(O)c12 [MYRICETIN] , thanks.
3.58

Need pIC50 of O=c1cc(-c2ccc(O)cc2)oc2c([C@@H]3O[C@H](CO)[C@@H](O)[C@H](O)[C@H]3O)c(O)cc(O)c12 [VITEXIN] , thanks.
3.72

Need pIC50 of O=c1c(O[C@@H]2O[C@H](CO)[C@H](O)[C@H](O)[C@H]2O)c(-c2ccc(O)c(O)c2)oc2cc(O)cc(O)c12 [HYPEROSIDE] , thanks.
5.79

Need pIC50 of CCCCOC(=O)c1ccc(O)cc1 [BUTYLPARABEN] , thanks.
2.62

Attribution: ChEMBL document CHEMBL5042491
